Tested on: HEK-293T
ASSAY_OVERVIEW: Incucyte cell viability with HEK293T; note: unitless GR value; below 1 slowed growth and below 0 cell loss
Assay type: toxicity, cell-based
REPORTED_CONDITIONS: human, 18 h, 10 µM, compound concentration 10 uM, replicate number 1, timepoint 18 hours
PARAMETER_MEASURED: Growth Rate

MOLECULE: COc1cc(OC)cc(C(=O)NNC(=O)Nc2cccc3ccccc23)c1
MEASURED: 0.97
--
MOLECULE: COC[C@@H](c1ccc(C(F)(F)F)cc1)N1CCN(C2(C)CCN(C(=O)c3c(C)ncnc3C)CC2)C[C@@H]1C.O=C(O)/C=C\C(=O)O [VICRIVIROC MALEATE]
MEASURED: 0.49
--
MOLECULE: COC(c1ccccc1)(c1ccccc1)[C@H](Oc1nc(C)cc(C)n1)C(=O)O
MEASURED: 0.99
--
MOLECULE: CCS(=O)(=O)Nc1ccc(Oc2ccc(F)cc2F)c(-c2cn(C)c(=O)c3[nH]ccc23)c1
MEASURED: 0.75
--
MOLECULE: CN(C(=O)c1ccccc1)c1cc(N(C)c2ccc3c(c2)CCc2ccc(C(=O)NCCN4CCOCC4)cc2C3=O)ccc1F
MEASURED: -0.33
--
MOLECULE: CO[C@H]1CNC[C@@H](OCC2CCC(F)(F)CC2)[C@@H]1Nc1ncc(-c2cncc(C)c2)c2cc(C)c(=O)[nH]c12
MEASURED: 0.84
--
MOLECULE: O=S(=O)(c1ccccc1)N(CC(F)(F)F)c1ccc(C(O)(C(F)(F)F)C(F)(F)F)cc1
MEASURED: 0.24
--
MOLECULE: Cc1ccccc1C(=O)Nc1ccc(C(=O)N2CCCC(N(C)C)c3ccccc32)cc1.Cl (stereo not drawn)
MEASURED: -0.11

These measurements were taken from ChEMBL document CHEMBL5058564.
